Origin of values: patent US9701645B2

Tested on: mice
protocol details: Seizure-like convulsion incidence in mice
Type: in vivo, mouse
condition summary: Intravenous 3 mg/kg
Kindly supply the reported Seizure-like convulsion incidence in mice (% of animals treated) values for the records listed here.
Give bare numbers, in %.

Past entries and their recorded results:
CCN(CC)C(=O)c1ccc([C@H](c2cccc(OC)c2)N2C[C@@H](C)N(Cc3ccccc3F)C[C@@H]2C)cc1: 20
CCN(CC)C(=O)c1ccc([C@H](c2cccc(OC)c2)N2C[C@@H](C)N(Cc3cccc(F)c3)C[C@@H]2C)cc1: 20
CCN(CC)C(=O)c1ccc([C@H](c2cccc(O)c2)N2C[C@@H](C)N(Cc3cccc(F)c3)C[C@@H]2C)cc1: 40
C=CCN1C[C@H](C)N([C@H](c2ccc(C(=O)N(CC)CC)cc2)c2cccc(OC)c2)C[C@H]1C: 100

Prompt line: Record request: Seizure-like convulsion incidence in mice (% of animals treated) value, item CCN(CC)C(=O)c1ccc([C@H](c2cccc(O)c2)N2C[C@@H](C)N(Cc3ccccc3F)C[C@@H]2C)cc1
Response line: 30

###

assay system: delta receptor (Mus musculus, UniProt P32300)
Construct: vasa deferentia were isolated from male CD-1 mice; tissue Charles River; host or cells: isolated vas deferens of male CD-1 mice
Sequence (P32300 whole entry): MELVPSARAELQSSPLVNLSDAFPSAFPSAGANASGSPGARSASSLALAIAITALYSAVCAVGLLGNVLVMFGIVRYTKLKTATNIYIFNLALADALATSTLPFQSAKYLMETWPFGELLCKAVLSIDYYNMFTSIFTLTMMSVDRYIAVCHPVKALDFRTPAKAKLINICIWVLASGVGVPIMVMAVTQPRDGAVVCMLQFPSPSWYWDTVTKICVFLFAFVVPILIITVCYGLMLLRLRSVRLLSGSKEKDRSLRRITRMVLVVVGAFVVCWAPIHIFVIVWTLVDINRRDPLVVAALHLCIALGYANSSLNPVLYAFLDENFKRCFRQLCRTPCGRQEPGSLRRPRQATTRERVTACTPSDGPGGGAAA
protocol details: Intrinsic activity, electrically-induced contractions of mouse isolated vas deferens (MVD)
Type: cell-based
result type: EC50 (nM)
Answers are plain numbers, in nM.

CCN(CC)C(=O)c1ccc([C@H](c2cccc(O)c2)N2C[C@@H](C)N(Cc3cccc(F)c3)C[C@@H]2C)cc1: 2.6
CCN(CC)C(=O)c1ccc([C@H](c2cccc(OC)c2)N2C[C@@H](C)N(Cc3ccccc3F)C[C@@H]2C)cc1: 4.1
CCN(CC)C(=O)c1ccc([C@H](c2cccc(OC)c2)N2C[C@@H](C)N(Cc3cccc(F)c3)C[C@@H]2C)cc1: 29

Prompt line: API: value(readout= EC50, system= delta receptor (Mus musculus, UniProt P32300), query= CCN(CC)C(=O)c1ccc([C@H](c2cccc(O)c2)N2C[C@@H](C)N(Cc3ccccc3F)C[C@@H]2C)cc1 )
Response line: 3

###

System: mice
protocol details: Seizure-like convulsion incidence in mice
Assay type: in vivo, mouse
condition summary: Intravenous 1 mg/kg
Kindly supply the reported Seizure-like convulsion incidence in mice (% of animals treated) values for the records listed here.
One number for each entry, in %.

C=CCN1C[C@H](C)N([C@H](c2ccc(C(=O)N(CC)CC)cc2)c2cccc(OC)c2)C[C@H]1C [SNC80]: 30
CCN(CC)C(=O)c1ccc([C@H](c2cccc(OC)c2)N2C[C@@H](C)N(Cc3ccccc3F)C[C@@H]2C)cc1 [Formula (iv)]: 0
CCN(CC)C(=O)c1ccc([C@H](c2cccc(O)c2)N2C[C@@H](C)N(Cc3cccc(F)c3)C[C@@H]2C)cc1 [Formula (i)]: 50

Now for the compound whose Seizure-like convulsion incidence in mice (% of animals treated) we want.
Prompt line: API: value(readout= Seizure-like convulsion incidence in mice (% of animals treated), system= mice, query= CCN(CC)C(=O)c1ccc([C@H](c2cccc(O)c2)N2C[C@@H](C)N(Cc3ccccc3F)C[C@@H]2C)cc1 [Formula (ii)] )
Response line: 0

###

Kindly supply the reported Ki values for the records listed here.
assay system: mu-opioid receptor (Rattus norvegicus)
Construct: delta and mu receptors from rat whole brain homogenate; from tissue; host or cells: rat whole brain homogenate (membrane fractions)
Sequence (P33535 whole entry): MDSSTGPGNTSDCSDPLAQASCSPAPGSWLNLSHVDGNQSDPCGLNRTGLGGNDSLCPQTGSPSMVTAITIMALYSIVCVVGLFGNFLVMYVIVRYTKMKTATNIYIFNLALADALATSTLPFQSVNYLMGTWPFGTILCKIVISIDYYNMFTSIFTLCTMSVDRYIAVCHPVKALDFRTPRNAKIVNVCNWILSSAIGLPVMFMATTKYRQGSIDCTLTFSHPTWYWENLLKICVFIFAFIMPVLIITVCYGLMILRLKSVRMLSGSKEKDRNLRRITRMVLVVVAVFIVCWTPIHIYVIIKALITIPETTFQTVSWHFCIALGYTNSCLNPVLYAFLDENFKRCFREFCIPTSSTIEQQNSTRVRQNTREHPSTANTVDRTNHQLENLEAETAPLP
protocol details: Radioligand binding, mu receptor ([3H]DAMGO)
Numbers only, in nM.

Past entries and their recorded results:
CCN(CC)C(=O)c1ccc([C@H](c2cccc(O)c2)N2C[C@@H](C)N(Cc3ccccc3F)C[C@@H]2C)cc1: 7.8
CCN(CC)C(=O)c1ccc([C@H](c2cccc(O)c2)N2C[C@@H](C)N(Cc3cccc(F)c3)C[C@@H]2C)cc1: 11.6
CCN(CC)C(=O)c1ccc([C@H](c2cccc(OC)c2)N2C[C@@H](C)N(Cc3cccc(F)c3)C[C@@H]2C)cc1: 5000

Now for the compound whose Ki we want.
Prompt line: Record request: Ki value, item CCN(CC)C(=O)c1ccc([C@H](c2cccc(OC)c2)N2C[C@@H](C)N(Cc3ccccc3F)C[C@@H]2C)cc1
Response line: 5000
